Listing of recorded pIC50 by entry.
- measurement.target: Human plasma kallikrein (Homo sapiens (Human))
- Sequence (P03952 391-638 limits assumed): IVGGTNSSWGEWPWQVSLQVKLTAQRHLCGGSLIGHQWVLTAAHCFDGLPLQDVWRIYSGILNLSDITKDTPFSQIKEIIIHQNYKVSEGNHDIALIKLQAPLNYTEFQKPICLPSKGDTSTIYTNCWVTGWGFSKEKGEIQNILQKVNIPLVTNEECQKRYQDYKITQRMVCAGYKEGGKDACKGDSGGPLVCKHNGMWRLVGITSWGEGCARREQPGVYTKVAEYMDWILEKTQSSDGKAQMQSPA
- Sequence (P03952 20-390 partner limits assumed): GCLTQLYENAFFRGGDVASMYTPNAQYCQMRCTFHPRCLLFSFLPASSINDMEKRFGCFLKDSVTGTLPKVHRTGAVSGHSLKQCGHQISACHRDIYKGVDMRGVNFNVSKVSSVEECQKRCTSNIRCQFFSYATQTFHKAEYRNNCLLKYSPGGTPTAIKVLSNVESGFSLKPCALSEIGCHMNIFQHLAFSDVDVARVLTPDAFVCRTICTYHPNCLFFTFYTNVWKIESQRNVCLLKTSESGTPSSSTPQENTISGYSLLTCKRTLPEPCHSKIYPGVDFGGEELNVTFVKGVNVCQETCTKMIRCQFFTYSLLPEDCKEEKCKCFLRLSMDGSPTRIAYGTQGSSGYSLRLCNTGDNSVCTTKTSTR
- protocol.notes: Determination of the IC50 for plasma kallikrein (fluorogenic substrate H-DPro-Phe-Arg-AFC)
- test.context: 37° C., read-out: IC50 (human PKal)
In textbook form, pIC50 equals minus log to base ten of the concentration in mol/L.

Consider the reported pIC50 for these molecules:
molecule	pIC50
CC1(C)CCCN1c1cc(Cc2cncc(C(=O)NCc3ccc4c(N)nccc4c3)c2)ccn1 [Example 84]	6.17
Cc1cnn(Cc2ccc(Cc3ccnc(C(=O)NCc4ccc5c(N)nccc5c4)c3)cc2)c1 [Example 3]	6.80
Cc1cnn(Cc2ccc(Cc3cnnc(C(=O)NCc4ccc5c(N)nccc5c4)c3)cc2)c1 [Example 11]	7.08

Incoming: I am curious: what pIC50 value has been reported for Cc1cnn(CCOCc2cncc(C(=O)NCc3ccc4c(N)nccc4c3)c2)c1 [Example 40] ?
Outgoing: 6.90

Just for reference, patent US10221161B2 is where these values come from.
